tested on: CCRIS mutagenicity, Ames/micronucleus/aberration tests; assay: CCRIS mutagenicity studies; settings: Test System: AMES SALMONELLA TYPHIMURIUM; Strain/Indicator: TA1537; Metabolic Activation: RAT, LIVER, S-9, AROCLOR 1254; Method: STANDARD PLATE
The source made the active and inactive calls. The rule behind the calls is not given here.
Write down one outcome, taken from active, inactive

Would you mind telling me which call this test gave O=C1CCC2(O)c3c(ccc(O)c31)-c1ccc(O)c3c1C2C1OC1C3=O (stereo not drawn) ?
active

In this assay, the call recorded for `CC(=O)c1ccccn1` was what?
inactive

Status in this test for `O=[N+]([O-])c1ccccc1OS(=O)(=O)c1cccc2cccnc12` ?
inactive

Test call for this molecule, please: `CC(C)(CO)[C@@H](O)C(=O)NCCCO`
inactive

Any idea what this test logged for `Nc1ccc(Cl)cc1` ?
inactive

Dear all, I need the recorded test outcome for `NCCNCCNCCN` , thank you.
inactive

Please let me know the test result on file for `O=c1[nH]c(=O)[nH]c(=O)[nH]1` .
inactive

Name the outcome recorded for `Oc1ccc2ccc3c4c(cc5ccc1c2c53)[C@@H](O)[C@H](O)C=C4` in the assay.
active

Can you look up the reported call for `Cc1cc(C)nc(SC(=O)OC(C)(C)C)n1` for me?
inactive

Each molecule tested received a call. Report the one for `CCCO` .
inactive

Tell me the assay call for `O=S(O)O` please.
inactive

Dear colleague, could you share the recorded outcome for `O=[N+]([O-])c1cc(C(F)(F)F)cc([N+](=O)[O-])c1O` when you have a moment?
inactive

Assay result, entry `Nc1ccc2ccc3cccc4ccc1c2c34` — outcome?
active

Could you kindly confirm the outcome this assay logged for CCCCC(CC)COC(=O)c1ccc(N(C)N=O)cc1 (stereo not drawn) ?
inactive

In this assay, the call recorded for `S=c1nc[nH]c2nc[nH]c12` was what?
inactive

Identify the outcome logged in this assay for the molecule shown: `C=CC(=O)OCC(C)(C)C`
inactive

Please let me know the test result on file for `Cc1c(C(=O)O)c(O)cc2c1C(=O)c1c(O)c([C@@H]3O[C@H](CO)[C@@H](O)[C@H](O)[C@H]3O)c(O)c(O)c1C2=O` .
inactive

Hi, sorry to bother you, what did the test record for `O=c1[nH]cnc2c1ncn2[C@H]1CC[C@@H](CO)O1` ?
inactive

---

tested on: CCRIS mutagenicity, Ames/micronucleus/aberration tests; experiment: CCRIS mutagenicity studies; settings: Test System: AMES SALMONELLA TYPHIMURIUM; Strain/Indicator: TA98; Metabolic Activation: RAT, LIVER, S-9, AROCLOR 1254; Method: STANDARD PLATE
Activity calls are given as the source filed them. The rule behind the calls is not given here.
Respond using exactly one of the listed classes: active, inactive

Please review the following examples before continuing.
INSERT INTO measurements (compound, class) VALUES
  ('CC(C)Cc1ccc(C(C)C(=O)O)cc1 (stereo not given)', 'inactive'),
  ('Cc1cc(C)nc(SC(=O)OC(C)(C)C)n1', 'inactive'),
  ('CCOc1cc(N=Nc2ccccc2)ccc1N=Nc1c(S(=O)(=O)O)cc2ccc(N)cc2c1O', 'active'),
  ('CCCCC(CC)COC(=O)c1ccc(N(C)N=O)cc1 (stereo not given)', 'inactive');

Test call for this compound, please: `Cc1cc(N)cc(C)c1N`
inactive

Dear all, I need the recorded test outcome for `Nc1cc2nc3ccccc3nc2cc1O` , thank you.
active

Could you please tell me the result logged for `CC[n+]1c(-c2ccccc2)c2cc(N)ccc2c2ccc(N)cc21` in this assay?
active

Please indicate how the test categorized `Cc1cc(-c2ccc(N)c(C)c2)ccc1N` .
active

Record request — test call for `COc1cc(/C=C/C(=O)CC(=O)/C=C/c2ccc(O)c(OC)c2)ccc1O`
inactive

What classification did `CCN(CC)c1cc(NC(C)=O)c(N=Nc2ccc([N+](=O)[O-])cc2)cc1OC` end up with in this test?
active

Assay outcome for `ClC(Cl)Cl` : what was it?
active

Kindly provide the recorded test outcome for the following compound: `CN(C)C1Cc2cccc3cccc(c23)C1`
active

# fetch the recorded call for `Cc1ccc(N)cc1N` here
active
